tested on: Plasmodium berghei; test: Screen against P. berghei liver stage (PbLuc), transformed with Luciferase, at 10uM; format: functional, HepG2; conditions: tested at 10 uM
In all, about 69,000 compounds went through this assay and about 8,600 (12%) showed an effect of 50% or more. For the sample, strong results were picked, then their nearest neighbours and some compounds at random.
Measured INHIBITION accompanies every entry in the list below.
The reply should contain only the number, in %.

A selection of reference data follows.
molecule=O=C(C1CCN(c2nc3nc[nH]c(=O)c3s2)CC1)N1CCCCC1 measured_number=37.4
molecule=CS(=O)(=O)N1CCC(O)(Cn2c(C3CC3)nc3ccccc3c2=O)CC1 measured_number=38.1
molecule="CC(c1cccnc1)N(C)Cc1cc2cc3c(cc2[nH]c1=O)OCO3 (configuration not stated)" measured_number=27.6

Name the recorded INHIBITION for CC(c1ccncn1)N(C)Cc1cc2cc3c(cc2[nH]c1=O)OCO3 (configuration not stated) .
58.7

And CN(Cc1ccc(N2CCOCC2)cc1)C(=O)Cn1cccnc1=O ?
7.08
